method summary: MTT cell viability assay in BV2 microglia cells
Type: cell-based
assay conditions: mouse, 3 µM, mean ± SD, n = 3
experimental readout: viability at 24 h, 3 µM (%)
Answer with a number only, understood to be in %.

Look over these answered cases.
COc1cc(CC/C=C/C(=O)/C=C/c2ccccc2)cc(OC)c1OC [CU-27] : 101
COc1ccc(CC/C=C/C(=O)/C=C/c2ccc(O)cc2)cc1 [CU-13] : 91.4
O=C(/C=C/CCc1ccc(Cl)cc1)/C=C/c1ccccc1 [CU-28] : 94.8
COc1ccc(/C=C/C(=O)/C=C/CCc2ccc(OC)c(OC)c2)cc1OC [CU-2] : 49.2
COc1cc(/C=C/C(=O)/C=C/CCc2ccccc2)ccc1O [CU-9] : 94.7

Let us move to another entry and its viability at 24 h, 3 µM.
(Q) Form field: reported viability at 24 h, 3 µM of O=C(/C=C/CCc1ccccc1)/C=C/c1ccc(O)cc1 [CU-7]
(A) 52.8
